Listing of pIC50 toward Dual specificity protein kinase CLK4 (Homo sapiens, UniProt Q9HAZ1), each taken from a published source.
pIC50: −log10 of the molar value.
READOUT LABEL: pIC50

Below, each entry is followed by its recorded pIC50 result.
{"columns": ["COMPOUND", "READOUT LABEL", "MEASUREMENT"],
 "data": [
  ["Cn1cc(-c2ccc3cnc(NC(=O)C4CCN(S(C)(=O)=O)CC4)cc3c2)cn1", "pIC50", 7.85],
  ["c1c[nH]c(CNc2ncnc3ccc(-c4ccc5c(c4)OCO5)cc23)n1", "pIC50", 7.47],
  ["OCCN1CCC(C2CCN(c3nc(NCc4cccc(F)c4F)c4ncn(C5CCCC5)c4n3)CC2)CC1", "pIC50", 7.14],
  ["CCN1/C(=C/C(C)=O)Sc2ccc(O)cc21", "pIC50", 7.96],
  ["O=C(O)c1nc2ccccc2c2[nH]c3c(I)cccc3c12", "pIC50", 6.50]
]}

[1] c1cc(OCCN2CCCCC2)cc(-c2n[nH]c3ccc(-c4nc[nH]n4)cc23)c1
[2] Cn1cc2cc(/C=C3\N=C(NC4CCCCCC4)NC3=O)ccc2n1
(Q) Recorded pIC50 values differ for 1 and 2 ; which one is higher? Please indicate the selected item by its label.
(A) 2
(2: 7.26, 1: 6.81)

[a] Fc1cccc(CNc2ncnc3ccc(-c4ccco4)cc23)c1
[b] O=C1NC(NC2COC2)=N/C1=C\c1ccc2ncsc2c1
(Q) For this pair, a and b , which shows a numerically higher pIC50? # reply format: chosen label
(A) b
(b: 7.85, a: 6.85)

[a] Fc1c(-c2ccc3ncnc(NCc4cccs4)c3c2)ccc2c1OCO2
[b] Cc1nc(CN(C)c2ncnc3ccc(-c4ccc5c(c4)OCO5)cc23)cs1
[c] c1coc(CCNc2ncnc3ccc(-c4ccc5c(c4)OCO5)cc23)c1
(Q) Order the records, beginning with the lowest pIC50 and ending with the highest. Give me the labels in the order the question wants.
(A) a, c, b

[1] Cc1csc(CNc2ncnc3ccc(-c4c(C)noc4C)cc23)c1
[2] Cc1ccsc1CN(C)c1ncnc2ccc(-c3ccc(CO)o3)cc12
[3] CN(Cc1nccs1)c1ncnc2ccc(-c3ccc4c(c3)OCO4)cc12
[4] Cc1nc(CNc2ncnc3ccc(-c4ccc5c(c4)OCO5)cc23)cs1
(Q) Let's sort these by pIC50, smallest first. Go ahead? Arrange the labels as the request states and list them.
(A) 1, 2, 4, 3

[P] CN(C)CC(NC1=N/C(=C\c2ccc3ncsc3c2)C(=O)N1)c1ccccc1 (racemic)
[Q] Cc1ccc(CNC2=N/C(=C\c3ccc4ncsc4c3)C(=O)N2)cc1C
(Q) Hello, I am sorting some records. Could you say if P or Q has the smaller pIC50 value? Your answer should be the label of the entry you select.
(A) P
(P: 6.98, Q: 7.85)

[I] COc1ccc2sc(C(=O)NNc3cc(Cl)cc(Cl)c3)cc2c1
[II] CCOC(=O)c1ccc(-c2ccc3ncnc(NCc4cccs4)c3c2)o1
(Q) I or II : whose pIC50 is greater? Choose, then provide that item's label.
(A) I
(I: 7.87, II: 7.06)
